Quick list: EC50 per entry.
- target-or-test-system: T1, cynomolgus CCR8 (cynomolgus, UniProt G7NYJ2 1-355)
- T1 construct: whole, on cells
- T1 sequence (G7NYJ2 entry or part of it): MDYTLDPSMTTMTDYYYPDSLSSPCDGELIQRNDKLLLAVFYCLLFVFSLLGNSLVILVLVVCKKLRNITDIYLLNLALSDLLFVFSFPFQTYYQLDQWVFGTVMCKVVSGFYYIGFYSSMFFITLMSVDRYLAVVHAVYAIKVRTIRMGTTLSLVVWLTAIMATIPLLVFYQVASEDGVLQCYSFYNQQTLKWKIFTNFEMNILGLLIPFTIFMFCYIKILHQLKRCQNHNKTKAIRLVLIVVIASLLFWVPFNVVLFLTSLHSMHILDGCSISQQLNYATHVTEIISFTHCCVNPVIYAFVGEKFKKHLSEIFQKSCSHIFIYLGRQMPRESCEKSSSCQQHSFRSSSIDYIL
- assay-overview: FACS on HEK293-cynomolgus CCR8 cells
measure: EC50 (nM)

binder: 149F2C10_N28Q (antibody, V domains shown, NG site removed variant of 149F2C10; detected with anti-mouse IgG) VH: EVQLVESGGGLVQPKGSLKLSCAASGFTFNTYAMNWVRQAPGKGLEWVARIRSKSNFYATYYADSVKDRFTISRDDSQDMLYLQMNILKTEDTAIYYCVRGRDYGSSYAMDYWGQGTSVTVSS VL: DIVMTQAAPSVPVTPGESVSISCRSSKSLLHSQGNTYLYWFLQRPGQSPQLLIYRMSNLASGVPDRFSGSGSGTAFTLRISRVEAEDVGVYYCMQHLEYPLTFGAGTKLELK
observed-result: 0.209
//
binder: 149F2C10_N28S (antibody, V domains shown, NG site removed variant of 149F2C10) VH: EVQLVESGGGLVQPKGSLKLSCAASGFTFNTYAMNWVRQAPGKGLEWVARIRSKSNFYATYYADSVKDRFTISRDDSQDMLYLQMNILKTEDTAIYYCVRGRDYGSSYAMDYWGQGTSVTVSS VL: DIVMTQAAPSVPVTPGESVSISCRSSKSLLHSSGNTYLYWFLQRPGQSPQLLIYRMSNLASGVPDRFSGSGSGTAFTLRISRVEAEDVGVYYCMQHLEYPLTFGAGTKLELK
observed-result: 0.333
//
binder: 149F2C10_G29V (antibody, V domains shown, NG site removed variant of 149F2C10) VH: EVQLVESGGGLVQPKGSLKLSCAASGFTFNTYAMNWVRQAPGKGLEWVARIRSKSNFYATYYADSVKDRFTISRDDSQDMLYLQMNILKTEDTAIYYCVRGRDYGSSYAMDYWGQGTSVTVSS VL: DIVMTQAAPSVPVTPGESVSISCRSSKSLLHSNVNTYLYWFLQRPGQSPQLLIYRMSNLASGVPDRFSGSGSGTAFTLRISRVEAEDVGVYYCMQHLEYPLTFGAGTKLELK
observed-result: 0.211
//
binder: 149F2C10_G29A (antibody, V domains shown, NG site removed variant of 149F2C10) VH: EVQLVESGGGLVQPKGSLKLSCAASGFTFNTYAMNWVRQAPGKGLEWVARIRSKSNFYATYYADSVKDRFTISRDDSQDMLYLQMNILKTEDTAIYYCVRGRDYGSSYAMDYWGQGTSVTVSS VL: DIVMTQAAPSVPVTPGESVSISCRSSKSLLHSNANTYLYWFLQRPGQSPQLLIYRMSNLASGVPDRFSGSGSGTAFTLRISRVEAEDVGVYYCMQHLEYPLTFGAGTKLELK
observed-result: 0.173
